Where do the numbers come from? From the supplement of paper PMC10307832.

Please respond with reported relative viability for every item in the list.
# Tested on: A-427
# procedure text: relative viability (nuclei count vs DMSO), 5 days (fraction); higher = more cells survive
# condition label: first compound 0.1581 µM
Give bare numbers.

Study these solved cases before continuing.
CC1(C)CCC(c2ccc(Cl)cc2)=C(CN2CCN(c3ccc(C(=O)NS(=O)(=O)c4ccc(N[C@H](CCN5CCOCC5)CSc5ccccc5)c(S(=O)(=O)C(F)(F)F)c4)cc3)CC2)C1 [Navitoclax] + CC(C)C[C@H](NC(=O)[C@H](Cc1ccccc1)NC(=O)c1cnccn1)B(O)O [Bortezomib] (partner 0.002 µM) = 1.02
CC1(C)CCC(c2ccc(Cl)cc2)=C(CN2CCN(c3ccc(C(=O)NS(=O)(=O)c4ccc(N[C@H](CCN5CCOCC5)CSc5ccccc5)c(S(=O)(=O)C(F)(F)F)c4)cc3)CC2)C1 [Navitoclax] + O=C(CCCCCCC(=O)Nc1ccccc1)NO [Vorinostat] (partner 1 µM) = 0.892

Here is another molecule to look at.
Recorded relative viability (molecule CC1(C)CCC(c2ccc(Cl)cc2)=C(CN2CCN(c3ccc(C(=O)NS(=O)(=O)c4ccc(N[C@H](CCN5CCOCC5)CSc5ccccc5)c(S(=O)(=O)C(F)(F)F)c4)cc3)CC2)C1 [Navitoclax] + CCNC(=O)c1noc(-c2cc(C(C)C)c(O)cc2O)c1-c1ccc(CN2CCOCC2)cc1 [Luminespib] (partner 0.01 µM) ): 0.908

* * *

# Test system: COR-L 105
# procedure text: relative viability (nuclei count vs DMSO), 5 days (fraction); higher = more cells survive
# condition label: first compound 0.04 µM
property: relative viability
One number for each entry.

O=C(O)c1ccc(-c2c[nH]c3ncc(-c4ccccc4)cc23)cc1C1CCCC1 + O=C(c1cc(Cc2n[nH]c(=O)c3ccccc23)ccc1F)N1CCN(C(=O)C2CC2)CC1 [Olaparib] (partner 8 µM) = 0.723
O=C(O)c1ccc(-c2c[nH]c3ncc(-c4ccccc4)cc23)cc1C1CCCC1 + CC(=O)Nc1cccc(-n2c(=O)n(C3CC3)c(=O)c3c(Nc4ccc(I)cc4F)n(C)c(=O)c(C)c32)c1 [Trametinib] (partner 0.02 µM) = 0.402
O=C(O)c1ccc(-c2c[nH]c3ncc(-c4ccccc4)cc23)cc1C1CCCC1 + O=C(CCCCCCC(=O)Nc1ccccc1)NO [Vorinostat] (partner 1 µM) = 0.912
O=C(O)c1ccc(-c2c[nH]c3ncc(-c4ccccc4)cc23)cc1C1CCCC1 + CC1(C)CCC(c2ccc(Cl)cc2)=C(CN2CCN(c3ccc(C(=O)NS(=O)(=O)c4ccc(N[C@H](CCN5CCOCC5)CSc5ccccc5)c(S(=O)(=O)C(F)(F)F)c4)cc3)CC2)C1 [Navitoclax] (partner 0.5 µM) = 0.818
O=C(O)c1ccc(-c2c[nH]c3ncc(-c4ccccc4)cc23)cc1C1CCCC1 + CS(=O)(=O)CCNCc1ccc(-c2ccc3ncnc(Nc4ccc(OCc5cccc(F)c5)c(Cl)c4)c3c2)o1 [Lapatinib] (partner 2 µM) = 0.363

Reported relative viability ( O=C(O)c1ccc(-c2c[nH]c3ncc(-c4ccccc4)cc23)cc1C1CCCC1 + C[C@@H](Oc1cc(-c2cnn(C3CCNCC3)c2)cnc1N)c1c(Cl)ccc(F)c1Cl [Crizotinib] (partner 1 µM) ) = 0.857

* * *

# Tested on: NCI-H2023
# procedure text: relative viability (nuclei count vs DMSO), 5 days (fraction); higher = more cells survive
# condition label: first compound 0.1 µM
Record form. Attribute: relative viability. Fill in for each entry.
Give bare numbers.

NC(=O)Nc1cc(-c2cccc(F)c2)sc1C(=O)N[C@H]1CCCNC1 [AZD7762] + CC(=O)c1c(C)c2cnc(Nc3ccc(N4CCNCC4)cn3)nc2n(C2CCCC2)c1=O [Palbociclib] (partner 0.5 µM) = 0.219
NC(=O)Nc1cc(-c2cccc(F)c2)sc1C(=O)N[C@H]1CCCNC1 [AZD7762] + CS(=O)(=O)CCNCc1ccc(-c2ccc3ncnc(Nc4ccc(OCc5cccc(F)c5)c(Cl)c4)c3c2)o1 [Lapatinib] (partner 2 µM) = 0.366
NC(=O)Nc1cc(-c2cccc(F)c2)sc1C(=O)N[C@H]1CCCNC1 [AZD7762] + CC(C)C[C@H](NC(=O)[C@H](Cc1ccccc1)NC(=O)c1cnccn1)B(O)O [Bortezomib] (partner 0.002 µM) = 0.465
NC(=O)Nc1cc(-c2cccc(F)c2)sc1C(=O)N[C@H]1CCCNC1 [AZD7762] + COc1cc2c(Oc3ccc(NC(=O)C4(C(=O)Nc5ccc(F)cc5)CC4)cc3F)ccnc2cc1OCCCN1CCOCC1 [Foretinib] (partner 0.25 µM) = 0.652
NC(=O)Nc1cc(-c2cccc(F)c2)sc1C(=O)N[C@H]1CCCNC1 [AZD7762] + Cc1cc(Nc2cc(N3CCN(C)CC3)nc(Sc3ccc(NC(=O)C4CC4)cc3)n2)n[nH]1 [Tozasertib] (partner 0.1 µM) = 0.227
NC(=O)Nc1cc(-c2cccc(F)c2)sc1C(=O)N[C@H]1CCCNC1 [AZD7762] + CC1(C)CCC(c2ccc(Cl)cc2)=C(CN2CCN(c3ccc(C(=O)NS(=O)(=O)c4ccc(N[C@H](CCN5CCOCC5)CSc5ccccc5)c(S(=O)(=O)C(F)(F)F)c4)cc3)CC2)C1 [Navitoclax] (partner 0.5 µM) = 0.663
NC(=O)Nc1cc(-c2cccc(F)c2)sc1C(=O)N[C@H]1CCCNC1 [AZD7762] + C[C@@H](Oc1cc(-c2cnn(C3CCNCC3)c2)cnc1N)c1c(Cl)ccc(F)c1Cl [Crizotinib] (partner 1 µM) = 0.417

// relative viability value for NC(=O)Nc1cc(-c2cccc(F)c2)sc1C(=O)N[C@H]1CCCNC1 [AZD7762] + CCNC(=O)c1noc(-c2cc(C(C)C)c(O)cc2O)c1-c1ccc(CN2CCOCC2)cc1 [Luminespib] (partner 0.01 µM) : 0.228
